Just for reference, patent US20080188654A1 is where these values come from.

- Test system: TNF-alpha
- assay.details: Inhibition of LPS-induced TNF-alpha release by human monocytes
- Type: cell-based
- reported.conditions: Monocyte, 30 μM, read-out: Percent Inhibition of TNF-alpha Release
Threshold rule: inhibition at 30 µM greater than or equal to 80% is true (1); below that, false (0).

// inclusive: inhibition at 30 µM at least 80%? input: CN(C)C(=O)/C(=C/c1cccnc1)c1ccc(Oc2ccc(CC(C(N)=O)C(N)=O)cc2)cc1
false (0)

Has COc1cc(/C=C(/C(=O)N(C)C)c2ccc(NC(=O)c3ccccc3)cc2)cc(OC)c1 a recorded inhibition at 30 µM greater than or equal to 80%?
true (1)

# bool: inhibition at 30 µM of COc1cc(/C=C(/C(=O)N(C)C)c2ccc(NC(=O)c3cccc(O)c3)cc2)cc(OC)c1 >= 80%
true (1)

Entry COc1cc(/C=C(/C(=O)N(C)C)c2ccc(Oc3ccccn3)cc2)cc(OC)c1 : is its inhibition at 30 µM no less than 80%?
true (1)

Dear colleague, could you confirm whether COc1cc(/C=C(/C(=O)N(C)C)c2ccc(O)cc2)cc(OC)c1 has inhibition at 30 µM at or above 80%?
false (0)

Confirm if inhibition at 30 µM reported for the molecule CC(=O)NC(=O)CCc1ccc(Oc2ccc(/C(=C\c3ccc(F)cc3)C(=O)N(C)C)cc2)cc1 is 80% or above.
false (0)

Answer whether inhibition at 30 µM of COc1cc(/C=C(/C(=O)N(C)C)c2ccc(Oc3ccc(CCC(N)=O)cc3)cc2)cc(OC)c1 is greater than or equal to 80%.
true (1)

Record CCOC(=O)CCc1ccc(Oc2ccc(C(=Cc3ccc4c(c3)OCO4)C(=O)N(C)C)cc2)cc1 ; criterion: inhibition at 30 µM no lower than 80%. Met?
false (0)
